Target: Carbonic anhydrase 1 (Homo sapiens)
Sequence (P00915 whole entry): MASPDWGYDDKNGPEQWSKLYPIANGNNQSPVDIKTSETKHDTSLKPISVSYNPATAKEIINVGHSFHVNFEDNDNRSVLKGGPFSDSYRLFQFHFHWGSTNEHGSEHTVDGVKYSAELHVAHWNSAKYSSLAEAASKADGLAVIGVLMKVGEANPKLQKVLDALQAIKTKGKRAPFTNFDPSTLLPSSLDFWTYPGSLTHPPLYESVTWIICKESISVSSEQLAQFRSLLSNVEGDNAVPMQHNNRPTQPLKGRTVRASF
experimental_readout: Ki (nM)

(I) CC1(C)CCC2=C(C1=O)C(c1ccc(C#N)cc1)C1=C(CCC(C)(C)C1=O)N2c1ccc(S(N)(=O)=O)cc1
(II) COc1ccc(C2C3=C(CC(C)(C)CC3=O)N(c3ccc(S(N)(=O)=O)cc3)C3=C2C(=O)CC(C)(C)C3)cc1
(III) COc1ccc(C2C3=C(CCC(C)(C)C3=O)N(c3ccc(S(N)(=O)=O)cc3)C3=C2C(=O)C(C)(C)CC3)cc1OC
(IV) COc1ccc(C2C3=C(CCCC3=O)N(c3ccc(S(N)(=O)=O)cc3)C3=C2C(=O)CCC3)cc1
## Task // sort listed items: Ki descending Thanks in advance for listing the labels in the requested order.
## Result III, I, II, IV
(III: 205 nM, I: 135 nM, II: 75 nM, IV: 8.5 nM)
